- Tested on: UniProt P23975
- Sequence (P23975 whole entry): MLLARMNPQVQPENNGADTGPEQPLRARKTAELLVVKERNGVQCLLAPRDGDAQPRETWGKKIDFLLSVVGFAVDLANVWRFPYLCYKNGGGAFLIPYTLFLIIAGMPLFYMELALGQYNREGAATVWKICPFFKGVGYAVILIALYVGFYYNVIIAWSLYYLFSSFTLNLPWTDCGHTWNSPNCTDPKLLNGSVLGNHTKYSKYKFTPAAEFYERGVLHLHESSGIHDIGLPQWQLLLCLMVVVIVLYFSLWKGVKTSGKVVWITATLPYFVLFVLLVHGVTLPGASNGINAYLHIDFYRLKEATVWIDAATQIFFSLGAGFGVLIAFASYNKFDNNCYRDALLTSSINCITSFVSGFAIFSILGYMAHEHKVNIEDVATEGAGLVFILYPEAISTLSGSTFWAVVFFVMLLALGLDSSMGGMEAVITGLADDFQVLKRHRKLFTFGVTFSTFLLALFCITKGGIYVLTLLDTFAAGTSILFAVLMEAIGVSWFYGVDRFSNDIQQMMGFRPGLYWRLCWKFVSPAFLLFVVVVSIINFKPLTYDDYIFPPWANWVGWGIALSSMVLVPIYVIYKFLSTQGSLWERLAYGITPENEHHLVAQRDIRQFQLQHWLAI
- Assay summary: cell-based
Property measured: EC50 (nM)

1) Cc1ccc([C@@]23CNC[C@@H]2C3)cc1 (single isomer, unassigned)    148

---

- Tested on: human serotonin transporter (hSERT) (Homo sapiens)
- Construct: The methods for 5-HT functional reuptake using the JAR cell line
- Sequence (P31645 whole entry): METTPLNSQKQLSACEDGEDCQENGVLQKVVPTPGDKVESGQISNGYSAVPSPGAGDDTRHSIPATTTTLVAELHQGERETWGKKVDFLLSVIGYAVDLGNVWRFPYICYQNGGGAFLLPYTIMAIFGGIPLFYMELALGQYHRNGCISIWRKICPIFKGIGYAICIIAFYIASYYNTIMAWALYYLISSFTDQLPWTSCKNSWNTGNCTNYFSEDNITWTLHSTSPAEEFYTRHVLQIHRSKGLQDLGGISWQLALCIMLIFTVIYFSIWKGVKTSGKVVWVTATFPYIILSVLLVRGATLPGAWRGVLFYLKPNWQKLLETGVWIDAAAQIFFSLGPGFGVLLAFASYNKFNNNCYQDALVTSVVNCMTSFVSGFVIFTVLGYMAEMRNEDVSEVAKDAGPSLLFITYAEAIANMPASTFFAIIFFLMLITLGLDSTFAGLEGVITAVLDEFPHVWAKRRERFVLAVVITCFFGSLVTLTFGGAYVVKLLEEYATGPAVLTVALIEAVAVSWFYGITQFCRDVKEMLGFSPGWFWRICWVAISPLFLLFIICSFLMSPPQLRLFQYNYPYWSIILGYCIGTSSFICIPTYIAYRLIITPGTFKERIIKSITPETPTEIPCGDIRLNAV
- Assay summary: Serotonin (5-HT) uptake assay in JAR cells
- Protocol conditions: [3H]5-HT uptake, read-out: hSERT function uptake (EC50 in nm)
- Experimental: MDCK-Net6 cells, stably transfected with human hNET [15] were cultured in growth medium containing high glucose DMEM (Gibco, Cat. No. 11995), 10% FBS (dialyzed, heat-inactivated, US Bio-Technologies, Lot FBD1129HI) and 500 μg/ml G418 (Gibco, Cat. No. 10131). […] The methods for 5-HT functional reuptake using the JAR cell line were modified using a previous literature report. […] The plates were counted in a Wallac Microbeta counter (PerkinElmer) to collect the raw cpm data. […]
Property measured: EC50 (µM)

1. Cc1ccc([C@@]23CNC[C@@H]2C3)cc1 (single isomer, unassigned)    7.35
